# target: human β2 adrenergic receptor (Homo sapiens)
# testProtocol: cell-based
# assayConditions: 10 min; compounds tested at 10 nM, isoproterenol at 10 μM; CHO cells, 10 min at 37° C; read-out: β2: % of isoproterenol activity (increase in cAMP)
recordedEndpoint: activation at 0.01 µM (%)

C[C@H](Cc1ccc2c(c1)OC(C(=O)OCC=Cc1ccccc1)(C(=O)OCC=Cc1ccccc1)O2)NC[C@H](O)c1cccc(Cl)c1 (stereo partly shown) : 16
CCCCCCOC(=O)C1(C(=O)OCCCCCC)Oc2ccc(CC(C)NCC(O)c3cccc(Cl)c3)cc2O1 (stereo not shown) : 5
CC(Cc1ccc2c(c1)OC(C(=O)OCCOC(C)C)(C(=O)OCCOC(C)C)O2)NCC(O)c1cccc(Cl)c1 (stereo not shown) : 2
CCC(=O)OCOC(=O)C1(C(=O)OCOC(=O)CC)Oc2ccc(CC(C)NCC(O)c3cccc(Cl)c3)cc2O1 (stereo not shown) : 0
CC(Cc1ccc2c(c1)OC(C(=O)O)(C(=O)OCCc1ccsc1)O2)NCC(O)c1cccc(Cl)c1 (stereo not shown) : 13

(I) CC(Cc1ccc2c(c1)OC(C(=O)OCOC(=O)C(C)C)(C(=O)OCOC(=O)C(C)C)O2)NCC(O)c1cccc(Cl)c1 (stereo not shown)
(II) CCOC(=O)C(C)OC(=O)C1(C(=O)OC(C)C(=O)OCC)Oc2ccc(CC(C)NCC(O)c3cccc(Cl)c3)cc2O1 (stereo not shown)
Asked: Which value of activation at 0.01 µM is smaller, the one for I or the one for II ? When you have decided, please share the label of that item.
Given back: I

* * *

# target: human β2 adrenergic receptor (Homo sapiens, UniProt P07550)
# Sequence (P07550 whole entry): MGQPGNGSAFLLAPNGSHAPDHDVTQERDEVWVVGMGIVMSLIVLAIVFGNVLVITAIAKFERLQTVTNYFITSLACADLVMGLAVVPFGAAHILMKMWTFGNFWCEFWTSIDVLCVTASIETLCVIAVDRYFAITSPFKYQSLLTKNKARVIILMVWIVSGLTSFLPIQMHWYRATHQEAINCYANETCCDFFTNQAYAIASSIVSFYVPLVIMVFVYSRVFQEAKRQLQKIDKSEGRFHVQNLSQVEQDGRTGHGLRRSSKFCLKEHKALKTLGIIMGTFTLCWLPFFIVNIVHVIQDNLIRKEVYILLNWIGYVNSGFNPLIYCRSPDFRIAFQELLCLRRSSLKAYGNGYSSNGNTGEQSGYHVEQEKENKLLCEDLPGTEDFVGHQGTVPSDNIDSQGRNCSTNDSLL
# testProtocol: cell-based
# assayConditions: CHO, 10 min, read-out: β2: % of isoproterenol activity (increase in cAMP)
Structures can show the parent of a compound that is named as a salt.
Consider the following molecules and their measured activation at 0.01 µM readings.
Expressed in %, but write only the number.

CC(Cc1ccc2c(c1)OC(C(=O)OCc1ccccc1)(C(=O)OCc1ccccc1)O2)NCC(O)c1cccc(Cl)c1 (stereo not shown) [Example 9, hydrochloride salt] : 16
COCCOC(=O)C1(C(=O)OCCOC)Oc2ccc(CC(C)NCC(O)c3cccc(Cl)c3)cc2O1 (stereo not shown) [Example 1, hydrochloride salt] : 4
CC(Cc1ccc2c(c1)OC(C(=O)OC[Si](C)(C)C)(C(=O)OC[Si](C)(C)C)O2)NCC(O)c1cccc(Cl)c1 (stereo not shown) : 0

Asked: Print human β2 adrenergic receptor (Homo sapiens, UniProt P07550) activation at 0.01 µM for CCOCCOC(=O)C1(C(=O)O)Oc2ccc(C[C@@H](C)NC[C@H](O)c3cccc(Cl)c3)cc2O1 (stereo partly shown) .
Given back: 0

Asked: Look up human β2 adrenergic receptor (Homo sapiens, UniProt P07550) data: activation at 0.01 µM of CC(Cc1ccc2c(c1)OC(C(=O)OC1CCCCC1)(C(=O)OC1CCCCC1)O2)NCC(O)c1cccc(Cl)c1 (stereo not shown) [Example 10, hydrochloride salt] , then report it.
Given back: 0

Asked: Fetch value of activation at 0.01 µM on human β2 adrenergic receptor (Homo sapiens, UniProt P07550) for CCOCCOC(=O)C1(C(=O)OCCOCC)Oc2ccc(CC(C)NCC(O)c3cccc(Cl)c3)cc2O1 (stereo not shown) [Example 5, hydrochloride salt] .
Given back: 4

Asked: Give activation at 0.01 µM; test system human β2 adrenergic receptor (Homo sapiens, UniProt P07550); molecule C[C@H](Cc1ccc2c(c1)OC(C(=O)OCCc1cccc(Br)c1)(C(=O)OCCc1cccc(Br)c1)O2)NC[C@H](O)c1cccc(Cl)c1 [Example 96, hydrochloride salt]
Given back: 1

* * *

# target: human β2 adrenergic receptor (Homo sapiens, UniProt P07550)
# testProtocol: cell-based
# assayConditions: 10 min; compounds tested at 10 nM, isoproterenol at 10 μM; CHO cells, 10 min at 37° C; read-out: β2: % of isoproterenol activity (increase in cAMP)
recordedEndpoint: activation at 0.01 µM (%)

The cases that follow already have their activation at 0.01 µM on record.
CC(Cc1ccc2c(c1)OC(C(=O)OCCCC1CCCC1)(C(=O)OCCCC1CCCC1)O2)NCC(O)c1cccc(Cl)c1 (centres unmarked) : 3
CCCCCC(=O)OCOC(=O)C1(C(=O)OCOC(=O)CCCCC)Oc2ccc(CC(C)NCC(O)c3cccc(Cl)c3)cc2O1 (centres unmarked) : 4

(P) CCN(CC)C(=O)COC(=O)C1(C(=O)OCC(=O)N(CC)CC)Oc2ccc(C[C@@H](C)NC[C@H](O)c3cccc(Cl)c3)cc2O1
(Q) CCCCCCCCOC(=O)C1(C(=O)OCCCCCCCC)Oc2ccc(CC(C)NCC(O)c3cccc(Cl)c3)cc2O1 (centres unmarked)
Asked: Which value of activation at 0.01 µM is numerically greater: that of P or that of Q ? Mark your answer with the label of the selected entry.
Given back: P

* * *

# target: UniProtKB P07550
# testProtocol: cell-based
# assayConditions: CHO, 10 min, read-out: β2: % of isoproterenol activity (increase in cAMP)
Where a name gives a salt, the structure may show the parent alone.
Property: activation at 0.01 µM; scope: individual compounds
# value in %; strip the unit string

Past entries and their recorded results:
CC(Cc1ccc2c(c1)OC(C(=O)OCC[Si](C)(C)C)(C(=O)OCC[Si](C)(C)C)O2)NCC(O)c1cccc(Cl)c1 (stereo not drawn) : 5
CC(Cc1ccc2c(c1)OC(C(=O)OCCOc1ccccc1)(C(=O)OCCOc1ccccc1)O2)NCC(O)c1cccc(Cl)c1 (stereo not drawn) [Example 4, hydrochloride salt] : 1
CCCCOCCOC(=O)C1(C(=O)OCCOCCCC)Oc2ccc(CC(C)NCC(O)c3cccc(Cl)c3)cc2O1 (stereo not drawn) [Example 3, hydrochloride salt] : 0
Cc1cccc(CCOC(=O)C2(C(=O)OCCc3cccc(C)c3)Oc3ccc(C[C@@H](C)NC[C@H](O)c4cccc(Cl)c4)cc3O2)c1 [Example 97, hydrochloride salt] : 4
CC(Cc1ccc2c(c1)OC(C(N)=O)(C(N)=O)O2)NCC(O)c1cccc(Cl)c1 (stereo not drawn) : 3

Pending compound:
Asked: Please supply the value of reported activation at 0.01 µM for the item CC(Cc1ccc2c(c1)OC(C(=O)OCCC[Si](C)(C)C)(C(=O)OCCC[Si](C)(C)C)O2)NCC(O)c1cccc(Cl)c1 (stereo not drawn)
Given back: 2

* * *

# target: UniProt P07550
# testProtocol: cell-based
# assayConditions: cAMP in CHO cells; selected compounds; read-out: β2: EC50
pEC50: −log10 of the molar value.
recordedEndpoint: pEC50

CC(Cc1ccc2c(c1)OC(C(=O)OCC1CCC1)(C(=O)OCC1CCC1)O2)NCC(O)c1cccc(Cl)c1 (stereo not shown) : 6.38

(a) C[C@H](Cc1ccc2c(c1)OC(C(=O)O)(C(=O)OCCC(C)(C)C)O2)NC[C@H](O)c1cccc(Cl)c1 (stereo partly shown)
(b) CC(Cc1ccc2c(c1)OC(C(=O)OCCc1ccccc1)(C(=O)OCCc1ccccc1)O2)NCC(O)c1cccc(Cl)c1.Cl (stereo not shown) [Example 2, hydrochloride salt]
(c) CC(Cc1ccc2c(c1)OC(C(=O)OCC1CC1)(C(=O)OCC1CC1)O2)NCC(O)c1cccc(Cl)c1 (stereo not shown)
(d) CC(Cc1ccc2c(c1)OC(C(=O)OCCC(C)(C)C)(C(=O)OCCC(C)(C)C)O2)NCC(O)c1cccc(Cl)c1 (stereo not shown)
Asked: Reorder the items by pEC50, least to greatest. I'd appreciate it if you listed the labels in the requested order.
Given back: c, d, a, b
(c: 6.56, d: 7.00, a: 7.23, b: 7.66)

(A) CC(C)CCOC(=O)C1(C(=O)OCCC(C)C)Oc2ccc(C[C@@H](C)NC[C@H](O)c3cccc(Cl)c3)cc2O1
(B) C[C@H](Cc1ccc2c(c1)OC(C(=O)OCC(C)(C)C)(C(=O)OCC(C)(C)C)O2)NC[C@H](O)c1cccc(Cl)c1
Asked: Hi there, can you help? I need to know whether A or B has lower measured pEC50. Label of pick, please.
Given back: B
(B: 6.49, A: 7.24)

* * *

# target: human β2 adrenergic receptor (Homo sapiens)
# testProtocol: cell-based
# assayConditions: 10 min; compounds tested at 10 nM, isoproterenol at 10 μM; CHO cells, 10 min at 37° C; read-out: β2: % of isoproterenol activity (increase in cAMP)
recordedEndpoint: activation at 0.01 µM (%)

CC(Cc1ccc2c(c1)OC(C(=O)OCCOC(C)(C)C)(C(=O)OCCOC(C)(C)C)O2)NCC(O)c1cccc(Cl)c1 (centres unmarked) : 3
CC(Cc1ccc2c(c1)OC(C(=O)OC(C)OC(=O)c1ccccc1)(C(=O)OC(C)OC(=O)c1ccccc1)O2)NCC(O)c1cccc(Cl)c1 (centres unmarked) : 0
CC(Cc1ccc2c(c1)OC(C(=O)OCOC(=O)CC(C)(C)C)(C(=O)OCOC(=O)CC(C)(C)C)O2)NCC(O)c1cccc(Cl)c1 (centres unmarked) : 2

(A) CC(Cc1ccc2c(c1)OC(C(=O)OC(C)OC(=O)C(C)(C)C)(C(=O)OC(C)OC(=O)C(C)(C)C)O2)NCC(O)c1cccc(Cl)c1 (centres unmarked)
(B) CCCCCCC(=O)OCOC(=O)C1(C(=O)OCOC(=O)CCCCCC)Oc2ccc(CC(C)NCC(O)c3cccc(Cl)c3)cc2O1 (centres unmarked)
(C) CCC(=O)OC(C)OC(=O)C1(C(=O)OC(C)OC(=O)CC)Oc2ccc(CC(C)NCC(O)c3cccc(Cl)c3)cc2O1 (centres unmarked)
(D) CC(C)CCCOC(=O)C1(C(=O)OCCCC(C)C)Oc2ccc(CC(C)NCC(O)c3cccc(Cl)c3)cc2O1 (centres unmarked)
(E) C=CCOC(=O)C1(C(=O)OCC=C)Oc2ccc(C[C@@H](C)NC[C@H](O)c3cccc(Cl)c3)cc2O1
Asked: Your job: order these 5 records by activation at 0.01 µM, ascending. Answer by listing the labels in the requested order.
Given back: C, A, D, E, B
